Assay: Drug concentration in mouse brain at 10 mg/kg, po measured after 0.5 hrs by LC-MS/MS analysis
Assay type: ADME, organism-based
Details: read-out: Ct
MEASURED QUANTITY: concentration at 0.5 h

>>> reported_measurement("CC(C)(C)OC(=O)c1csc(-c2c(Cl)cccc2Cl)n1")
"627 ng/g"

###

Test system: BCRP
Experiment: Apparent permeability across apical to basolateral side in human Caco-2 cells transfected with human BCRP at 3 uM measured after 60 to 90 mins by LC-MS/MS analysis
Type: ADME, cell-based
Conditions: time 60-90 min
MEASURED QUANTITY: Papp A→B at 3 µM (×10⁻⁶ cm/s)

>>> reported_measurement("O=C(O)c1csc(-c2c(Cl)cccc2Cl)n1")
10.7

###

Experiment: Metabolic stability in pooled CD-1 mouse liver microsomes assessed as parent compound remaining at 10 uM measured immediately in presence of NADPH regeneration system by LC-MS analysis
Type: ADME, Microsome
Settings: read-out: Stability
MEASURED QUANTITY: remaining at 0 min, 10 µM

>>> reported_measurement("O=C(O)c1csc(-c2c(Cl)cccc2Cl)n1")
"100%"
>>> reported_measurement("CC(C)(C)COC(=O)c1csc(-c2c(Cl)cccc2Cl)n1")
"100%"
>>> reported_measurement("CC(C)(C)OC(=O)c1csc(-c2c(Cl)cccc2Cl)n1")
"100%"

###

Target: Calcium/calmodulin-dependent protein kinase type II subunit alpha (Rattus norvegicus, UniProt P11275)
Sequence (P11275 whole entry): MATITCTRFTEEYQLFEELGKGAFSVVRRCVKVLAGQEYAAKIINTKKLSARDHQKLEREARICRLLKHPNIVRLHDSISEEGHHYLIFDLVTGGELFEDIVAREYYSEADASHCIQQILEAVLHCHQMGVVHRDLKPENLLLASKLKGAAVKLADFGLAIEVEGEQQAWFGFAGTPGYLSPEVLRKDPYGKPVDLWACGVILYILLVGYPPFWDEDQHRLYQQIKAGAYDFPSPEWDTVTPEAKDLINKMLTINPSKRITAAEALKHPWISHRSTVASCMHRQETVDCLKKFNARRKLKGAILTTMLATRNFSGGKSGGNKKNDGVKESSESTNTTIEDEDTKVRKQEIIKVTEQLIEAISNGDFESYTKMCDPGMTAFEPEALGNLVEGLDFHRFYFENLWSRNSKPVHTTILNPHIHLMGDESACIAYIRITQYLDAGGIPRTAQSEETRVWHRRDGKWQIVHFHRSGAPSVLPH
Test: Inhibition of […] binding to CaMKIIalpha in rat brain cortical membrane assessed as inhibition constant incubated for 1 hrs by TopCount NXT microplate scintillation counter analysis
Format: cell membranes, Cortex
Conditions: read-out: Ki
Overview of recorded Ki for various compounds
MEASURED QUANTITY: Ki (µM)

>>> reported_measurement("Cc1ccc(-c2nc(C(=O)O)cs2)cc1")
2.3
>>> reported_measurement("O=C(O)c1csc(Cc2ccccc2)n1")
1.4
>>> reported_measurement("O=C(O)c1csc(-c2c(I)cccc2I)n1")
0.16
>>> reported_measurement("Clc1cccc(Cl)c1-c1nc(-c2nnn[nH]2)cs1")
0.19
>>> reported_measurement("Cc1cccc(C)c1-c1nc(C(=O)O)cs1")
0.1

###

Target: Calcium/calmodulin-dependent protein kinase type II subunit alpha (Homo sapiens)
Sequence (Q9UQM7 whole entry, the tested form may be a part): as the sequence (P11275 whole entry) above, with N324S counted along it
Experiment: Binding affinity to recombinant wildtype human CAMKIIalpha hub domain (345 to 475 residues) extracted from Escherichia coli BL21 (DE3) cells assessed as dissociation constant by SPR analysis
pKd: −log10 of the molar value.
MEASURED QUANTITY: pKd

>>> reported_measurement("O=C(O)c1csc(-c2c(Cl)cccc2Cl)n1")
6.12

###

Assay: Drug concentration in mouse brain at 10 mg/kg, ip measured after 0.5 hrs by LC-MS/MS analysis
Type: ADME, organism-based
Settings: read-out: Ct
MEASURED QUANTITY: concentration at 0.5 h (ng/g)

>>> reported_measurement("O=C(O)c1csc(-c2c(Cl)cccc2Cl)n1")
350

###

Molecular target: Calcium/calmodulin-dependent protein kinase type II subunit alpha (Rattus norvegicus)
Assay: Inhibition of […] binding to CaMKIIalpha in rat brain cortical membrane assessed as inhibition constant incubated for 1 hrs by TopCount NXT microplate scintillation counter analysis
Format: cell membranes, Cortex
Conditions: read-out: Ki
MEASURED QUANTITY: Ki (µM)

>>> reported_measurement("O=C(O)c1csc(-c2c(Br)cccc2Br)n1")
0.05
>>> reported_measurement("Cc1ccccc1-c1nc(C(=O)O)cs1")
0.9
>>> reported_measurement("O=C(O)c1csc(-c2ccc(Cl)c(Cl)c2)n1")
1.6
>>> reported_measurement("CC(C)(C)OC(=O)c1csc(-c2c(Cl)cccc2Cl)n1")
56.4
>>> reported_measurement("O=C(O)c1csc(/C=C/c2ccccc2)n1")
3.2
>>> reported_measurement("O=C(O)c1csc(-c2ccccc2)n1")
11.5
>>> reported_measurement("O=C(O)c1csc(-c2ccccc2Cl)n1")
1
>>> reported_measurement("CCc1ccc(-c2nc(C(=O)O)cs2)cc1")
5.4
>>> reported_measurement("Clc1cccc(Cl)c1-c1nc(Cc2nnn[nH]2)cs1")
44.8
>>> reported_measurement("Cc1ccc(-c2nc(CC(=O)O)cs2)cc1")
2.9
>>> reported_measurement("O=C(O)c1csc(-c2cccc(O)c2)n1")
2.7

###

System: BCRP
Test: Apparent permeability across apical to basolateral side in human Caco-2 cells transfected with human BCRP at 3 uM preincubated with novobiocin for 15 to 30 mins followed by compound addition and measured after 60 to 90 mins by LC-MS/MS analysis
Format: ADME, cell-based
Conditions: time 60-90 min
MEASURED QUANTITY: Papp A→B at 3 µM (×10⁻⁶ cm/s)

>>> reported_measurement("O=C(O)c1csc(-c2c(Cl)cccc2Cl)n1")
10.9

###

Test: Metabolic stability in pooled human plasma assessed as parent compound remaining at 20 uM measured after 30 mins by LC-MS analysis
Assay type: ADME, cell-free
Details: read-out: Stability
MEASURED QUANTITY: remaining at 0.5 h, 20 µM (%)

>>> reported_measurement("CC(C)(C)COC(=O)c1csc(-c2c(Cl)cccc2Cl)n1")
75
>>> reported_measurement("CC(C)(C)OC(=O)c1csc(-c2c(Cl)cccc2Cl)n1")
78
>>> reported_measurement("O=C(O)c1csc(-c2c(Cl)cccc2Cl)n1")
101

###

Assay: Ratio of unbound brain to plasma drug concentration in mouse at 10 mg/kg, po measured after 0.5 hrs by LC-MS/MS analysis
Type: ADME, organism-based
Conditions: brain and plasma, read-out: K(p,uu,brain)
MEASURED QUANTITY: Kp uu at 0.5 h

>>> reported_measurement("CC(C)(C)OC(=O)c1csc(-c2c(Cl)cccc2Cl)n1")
0.49

###

Assay: Metabolic stability in pooled human plasma assessed as parent compound remaining at 20 uM measured after 60 mins by LC-MS analysis
Format: ADME, cell-free
Conditions: read-out: Stability
MEASURED QUANTITY: remaining at 1 h, 20 µM (%)

>>> reported_measurement("CC(C)(C)OC(=O)c1csc(-c2c(Cl)cccc2Cl)n1")
74
>>> reported_measurement("CC(C)(C)COC(=O)c1csc(-c2c(Cl)cccc2Cl)n1")
65
>>> reported_measurement("O=C(O)c1csc(-c2c(Cl)cccc2Cl)n1")
98

###

Assay: Ratio of drug concentration in mouse brain to plasma at 10 mg/kg, ip measured after 0.5 hrs by LC-MS/MS analysis
Format: ADME, organism-based
Settings: brain and plasma, read-out: BPR
MEASURED QUANTITY: Kp at 0.5 h

>>> reported_measurement("O=C(O)c1csc(-c2c(Cl)cccc2Cl)n1")
0.02

###

Target: Calcium/calmodulin-dependent protein kinase type II subunit alpha (Rattus norvegicus)
Assay: Inhibition of […] binding to CaMKIIalpha in rat brain cortical membrane assessed as inhibition constant incubated for 1 hrs by TopCount NXT microplate scintillation counter analysis
Assay type: cell membranes, Cortex
Conditions: read-out: Ki
MEASURED QUANTITY: Ki

>>> reported_measurement("CC(C)(C)COC(=O)c1csc(-c2c(Cl)cccc2Cl)n1")
"> 100 µM"
>>> reported_measurement("OC1(c2nc(-c3c(Cl)cccc3Cl)cs2)COC1")
"> 100 µM"
>>> reported_measurement("O=C(O)Cc1csc(-c2c(Cl)cccc2Cl)n1")
"> 10 µM"

###

Target: Calcium/calmodulin-dependent protein kinase type II subunit alpha (Rattus norvegicus, UniProt P11275)
Assay: Inhibition of […] binding to CaMKIIalpha in rat brain cortical membrane assessed as inhibition constant incubated for 1 hrs by TopCount NXT microplate scintillation counter analysis
Assay type: cell membranes, Cortex
Details: read-out: Ki
pKi: −log10 of the molar value.
Recorded pKi for the following molecules
MEASURED QUANTITY: pKi

>>> reported_measurement("OC1(c2csc(-c3c(Cl)cccc3Cl)n2)COC1")
"< 4.00"
>>> reported_measurement("O=C(O)c1cnc(-c2ccccc2)s1")
"< 4.00"
>>> reported_measurement("O=C(O)Cc1csc(Cc2ccccc2)n1")
"< 5.00"
